Target: smooth muscle angiotensin II receptor
Experiment: Assay A: Angiotensin II Binding Activity
Conditions: displacement of 125I-AII, rat uterine membrane preparation
readoutKind: IC50 (µM)
Answer in µM, number only, no unit symbol.

Given the entry CCCCc1nc(Cl)c(Cl)n1Cc1ccc(-n2cccc2C(=O)O)cc1 [Example 1] , report its measured IC50. 5.8
